The following compounds are shown together with reported melting point values.
test readout: melting point

>>> print(df.to_string())
                                    compound   test_readout   observed_value
 0  COC(=O)C(Oc1ccc(C(F)(F)F)cc1)c1ccc(OCCOc2ccc(Cl)cc2)cc1 (centres undefined)  melting point      95 to 97 °C
 1  CCOC(=O)c1c(CCl)nc2ccc(C)cc2c1-c1ccc(OC)c(OC)c1  melting point    125 to 126 °C
 2  N#Cc1ccc(C2=NOC(CO)C2)c2ccccc12 (centres undefined)  melting point    138 to 139 °C
 3  O=C(C1CC1)N1CCN(C(=O)c2cc(C(F)(F)F)cc(C(F)(F)F)c2)[C@H](Cc2c[nH]c3ccccc23)C1  melting point    109 to 114 °C
 4  O=S(=O)(NCCCCCCCCCCOc1ccc(-n2ccnc2)cc1)c1ccc2ccccc2c1  melting point    112 to 115 °C
 5  CCOC(=O)[C@@H](C)OC(=O)c1ccc([N+](=O)[O-])cc1  melting point      42 to 43 °C
 6  OCCc1ccc(Nc2ncc3c(n2)-c2ccccc2C(c2cccc(Br)c2)C3)cc1 (centres undefined)  melting point      88 to 90 °C
 7  C=C1N(c2ccccc2)C(=O)OC12CCN(CCC=C(c1ccc(F)cc1)c1ccc(F)cc1)CC2  melting point    136 to 138 °C
 8  O=C(Nc1ccc(C(F)(F)F)cc1)C1=NN(c2cccc(Cl)c2)C(c2ccccc2)CC1 (centres undefined)  melting point    183 to 184 °C
 9                  Nc1ccncc1Oc1ccc2ccccc2c1  melting point    117 to 118 °C
10  C[C@@H](c1ccc(-c2ccc(C#N)cn2)cc1)N1CC[C@](CC(C)(C)O)(c2ccccc2)OC1=O  melting point    160 to 162 °C
11  O=C1OC(Cl)(c2ccc(Cl)cc2Cl)c2ccccc21 (centres undefined)  melting point    148 to 149 °C
12  CC(C)(C)c1cc(SC2CCN(S(=O)(=O)c3ncc(CO)[nH]3)CC2)cc(C(C)(C)C)c1O  melting point    122 to 123 °C
13            CCCCCCOc1ccc2cc(OCCCCCC)ccc2c1  melting point      78 to 79 °C
14            c1ccc(C(Oc2ccncc2)c2ccccc2)cc1  melting point      68 to 70 °C
15  O=C1CCN2CCc3ccccc3C2(c2ccc(F)cc2)C1 (centres undefined)  melting point    128 to 130 °C
16  COc1ccc(NS(=O)(=O)CC(=O)O)cc1[N+](=O)[O-]  melting point    154 to 156 °C
17  CCN(CC)CCC1CCN(C(=O)N2c3ccccc3C(=O)Nc3cccnc32)C1 (centres undefined)  melting point    137 to 138 °C
18                 Clc1ccc(-c2ccc[nH]2)cc1Cl  melting point      49 to 51 °C
19    CCCCNC(=O)Oc1cccc(NC(=O)CC(C)(OC)OC)c1  melting point           114 °C
20  CCCCCCCCCCCC(=O)C(C)(C)C(=O)Nc1c(OC)cc(OC)cc1OC  melting point      92 to 94 °C
21              CCOc1c2ccccc2c(C=O)c2ccccc12  melting point      88 to 90 °C
22  CC(C)C(CS(=O)(=O)c1ccc(-c2cccc(CNC(=O)c3nc4ccccc4c(=O)[nH]3)c2)cc1)N(O)C(N)=O (centres undefined)  melting point    193 to 195 °C
23  O=C1C2CCCCC2C2(c3ccccc3)NCCN12 (centres undefined)  melting point           170 °C
24  CC1COc2c(N3CCC(n4ccnn4)C3)c(F)cc3c(=O)c(C(=O)O)cn1c23 (single isomer, unassigned; (-))  melting point    225 to 229 °C
25   Cc1ccc(-c2noc3c(Cl)c(OCC(=O)O)ccc23)cc1  melting point    257 to 260 °C
26    Cc1cc(-c2ccnc(C#N)c2)n(-c2ccc(F)cc2)n1  melting point      94 to 95 °C
27       CCC(=O)c1ncn2c1CN(C)C(=O)c1ccccc1-2  melting point    215 to 216 °C
28  CCc1c(C(=O)O)nn(-c2ccc(Cl)cc2Cl)c1-c1ccc(Br)cc1  melting point           218 °C
29  CCOP(=O)(OCC)C(CCc1cc(C)nc2c(Br)c(-c3ccccc3)nn12)P(=O)(OCC)OCC  melting point      46 to 48 °C
30  CCCCCCCCCCCCCCCCC[C@@H]1OC[C@@H](COC(=O)CCCCCOS(=O)(=O)c2ccc(C)cc2)O1 (relative stereo)  melting point  41.9 to 42.7 °C
31     O=c1[nH]c2ccc(Cl)cc2c2c1[nH]c1ccccc12  melting point    325 to 327 °C
32     O=C1CCCN1c1cnc2cnc(-c3ccc(O)cc3)nc2c1  melting point         > 268 °C
33  CCCC1=NN=C2C1=C1C=CC=CN1C(=O)C2C#N (centres undefined)  melting point    298 to 300 °C
34  CCOC(=O)Nc1ccc2nc3ccccc3c(-c3cc(C)ccc3C)c2c1  melting point    200 to 202 °C
35  CC1(C)CCC(C)(C)c2cc(-c3cc(CO)cc(-c4ccc(C(=O)O)cc4)c3)ccc21  melting point           213 °C
36  COc1cc(N)ccc1S(=O)(=O)n1c(=O)n(C2CCCCCC2)c2cc(Cl)ccc21  melting point           219 °C
37                        O=c1[nH]cnc2cscc12  melting point    275 to 278 °C
38                 COc1cc(C)nn1-c1ccc(Br)cc1  melting point      67 to 68 °C
